- EXPERIMENTAL TARGET: bovine slow myosin subfragment 1 (slow S1, masseter) (Bos taurus, UniProt Q9BE39)
- Sequence (Q9BE39 1-840 limits assumed): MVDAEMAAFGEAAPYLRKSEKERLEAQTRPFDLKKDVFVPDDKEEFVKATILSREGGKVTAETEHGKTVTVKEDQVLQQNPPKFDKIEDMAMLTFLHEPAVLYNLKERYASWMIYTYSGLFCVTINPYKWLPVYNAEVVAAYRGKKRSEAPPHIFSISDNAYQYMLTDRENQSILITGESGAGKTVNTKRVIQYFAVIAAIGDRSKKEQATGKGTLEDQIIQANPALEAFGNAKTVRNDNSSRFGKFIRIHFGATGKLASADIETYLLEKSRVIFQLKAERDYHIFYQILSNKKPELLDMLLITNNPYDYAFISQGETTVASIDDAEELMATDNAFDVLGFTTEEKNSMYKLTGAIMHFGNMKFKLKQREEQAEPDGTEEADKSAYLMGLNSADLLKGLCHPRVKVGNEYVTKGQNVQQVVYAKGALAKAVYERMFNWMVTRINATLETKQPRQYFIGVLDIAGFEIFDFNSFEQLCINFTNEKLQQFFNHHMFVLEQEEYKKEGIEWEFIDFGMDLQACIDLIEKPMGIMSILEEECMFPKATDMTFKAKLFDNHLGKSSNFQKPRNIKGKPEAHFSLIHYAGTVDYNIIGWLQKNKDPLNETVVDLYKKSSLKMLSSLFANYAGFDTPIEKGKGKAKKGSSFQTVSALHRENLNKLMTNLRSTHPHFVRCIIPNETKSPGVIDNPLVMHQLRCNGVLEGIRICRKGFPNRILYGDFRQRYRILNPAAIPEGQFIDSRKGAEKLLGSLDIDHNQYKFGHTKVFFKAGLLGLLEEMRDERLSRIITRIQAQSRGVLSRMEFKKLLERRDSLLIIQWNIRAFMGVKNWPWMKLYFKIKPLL
- Sequence (P85100 2-199 partner): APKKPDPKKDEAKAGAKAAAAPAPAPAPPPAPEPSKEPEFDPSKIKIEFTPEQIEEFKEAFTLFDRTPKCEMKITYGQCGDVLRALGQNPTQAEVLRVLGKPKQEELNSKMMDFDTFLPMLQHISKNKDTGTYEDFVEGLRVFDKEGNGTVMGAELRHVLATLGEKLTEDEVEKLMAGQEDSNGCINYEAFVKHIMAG
RESULT TYPE: pKi
# pKi = -log10(concentration in molar units)

## Input Send back bovine slow myosin subfragment 1 (slow S1, masseter) (Bos taurus, UniProt Q9BE39) pKi of O=P(O)(O)OP(=O)(O)O [PPi, pyrophosphate] only.
## Output 4.74
